B1: TPR 5TU (parent)
chain: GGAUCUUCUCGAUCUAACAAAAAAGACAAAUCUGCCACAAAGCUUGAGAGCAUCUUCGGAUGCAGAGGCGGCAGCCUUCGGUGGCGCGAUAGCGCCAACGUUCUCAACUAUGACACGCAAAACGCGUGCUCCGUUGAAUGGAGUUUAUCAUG

Variants of: B1
Assay: polymerase ribozyme fitness, log enrichment relative to wild type (log ratio); higher = more active; in vitro selection for triplet polymerase activity
Fewer inactive variants are shown than the library holds.
Output met for polymerase ribozyme fitness (log ratio) not less than -3; output not met otherwise.

The examples below pair each entry with its known result.
VARIANT: U4C C10A A12U U53A G88C C96A
LABEL VALUE: not met
//
VARIANT: U45G C93A A113U C116U
LABEL VALUE: not met
//
VARIANT: A19U U31C G46A C96U C131U U139G
LABEL VALUE: met
//
VARIANT: C95A G141C
LABEL VALUE: met
//
VARIANT: C27A A39G U53C C95A A121U G136C
LABEL VALUE: not met

Q: API: above_or_equal(metric=polymerase ribozyme fitness (log ratio), cutoff=-3) for item U7C G86U
Ans: not met

Q: API: above_or_equal(metric=polymerase ribozyme fitness (log ratio), cutoff=-3) for item A23G G84U
Ans: not met

Q: API: above_or_equal(metric=polymerase ribozyme fitness (log ratio), cutoff=-3) for item A28U C76G G92U
Ans: not met

Q: API: above_or_equal(metric=polymerase ribozyme fitness (log ratio), cutoff=-3) for item C87A U144C
Ans: not met

Q: API: above_or_equal(metric=polymerase ribozyme fitness (log ratio), cutoff=-3) for item A24U A40C A98U
Ans: met

Q: API: above_or_equal(metric=polymerase ribozyme fitness (log ratio), cutoff=-3) for item C36U A66G G112A A142U
Ans: not met

Q: API: above_or_equal(metric=polymerase ribozyme fitness (log ratio), cutoff=-3) for item A16U U139G G140U
Ans: not met

Q: API: above_or_equal(metric=polymerase ribozyme fitness (log ratio), cutoff=-3) for item C8A C18U C35G C57U C76A G92U G117C U134A
Ans: not met

Q: API: above_or_equal(metric=polymerase ribozyme fitness (log ratio), cutoff=-3) for item A66U C96A U111A A122G A138C
Ans: not met
